# experimental-system: Bromodomain-containing protein 4 (Homo sapiens, UniProt O60885)
# assay-name: Inhibition of BRD4 BD2 (unknown origin) using SGRGK(Ac)GGK(Ac)GLGK(Ac) GGAK(Ac)RHRK-biotinylated peptide as substrate incubated for 60 mins by alpha screen assay
What log10(IC50) was measured for each of the following?
# values: log10(IC50), units µM

Parameter requested: log10(IC50). Apply to each item below.
1. CC(C)Nc1ccc(NS(=O)(=O)c2cccs2)c(Nc2ccc3[nH]nnc3c2)n1
2. CC(C)Nc1ccc(NS(=O)(=O)c2ccccc2C(F)(F)F)c(Nc2ccc3[nH]nnc3c2)n1
3. CN(C)S(=O)(=O)Nc1ccc(NCc2ccco2)nc1Nc1ccc2[nH]nnc2c1
4. CN(C)S(=O)(=O)Nc1ccc(N2C3CCC2COC3)nc1Nc1ccc2[nH]nnc2c1
5. CN(C)S(=O)(=O)Nc1ccc(NCC2CCCO2)nc1Nc1ccc2[nH]nnc2c1 (stereo not given)
6. COCC(C)Nc1ccc(NS(=O)(=O)N(C)C)c(Nc2ccc3[nH]nnc3c2)n1 (stereo not given)

[-0.11, 0.20, 1.36, 0.64, 0.93, 0.90]

====

# assay-name: Microsomal stability in mouse liver microsomes assessed as parent compound remaining measured after 30 mins
# Assay type: ADME, Microsome
# condition-info: read-out: Stability
assay-readout: remaining at 0.5 h (%)
Numbers only, in %.

Returns the measured remaining at 0.5 h for the input compound. Input: COCC(C)Nc1ccc(NS(=O)(=O)N(C)C)c(Nc2ccc3[nH]nnc3c2)n1 (stereo unspecified)
28

====

What IC50 was measured for each of the following?
# experimental-system: Bromodomain-containing protein 4 (Homo sapiens)
# assay-name: Inhibition of N-terminal GST-tagged/C-terminal 6His-tagged BRD4 BD1 (47 to 170 residues) (unknown origin) expressed in Escherichia coli BL21 (DE3) using SGRGK(Ac)GGK(Ac)GLGK(Ac) GGAK(Ac)RHRK-biotinylated peptide as substrate incubated for 60 mins by alpha screen assay
Numbers only, in µM.

Can you look up IC50 on Bromodomain-containing protein 4 (Homo sapiens) for `COC(=O)NS(=O)(=O)Nc1ccc(NC(C)C)nc1Nc1ccc2[nH]nnc2c1` ?
1.18

Can you look up IC50 on Bromodomain-containing protein 4 (Homo sapiens) for `CC(C)Nc1ccc(NS(=O)(=O)C2CC2)c(Nc2ccc3[nH]nnc3c2)n1` ?
1.83

Can you look up IC50 on Bromodomain-containing protein 4 (Homo sapiens) for `CC(C)Nc1ccc(NS(=O)(=O)c2ccccc2F)c(Nc2ccc3[nH]nnc3c2)n1` ?
1.42

Can you look up IC50 on Bromodomain-containing protein 4 (Homo sapiens) for `CC(C)Nc1ccc(NS(=O)(=O)c2c(F)cccc2F)c(Nc2ccc3[nH]nnc3c2)n1` ?
0.78

Can you look up IC50 on Bromodomain-containing protein 4 (Homo sapiens) for `CC(C)Nc1ccc([N+](=O)[O-])c(Nc2ccc3c(c2)nnn3S(=O)(=O)c2ccccc2)n1` ?
3.1

Can you look up IC50 on Bromodomain-containing protein 4 (Homo sapiens) for `CN(C)S(=O)(=O)Nc1ccc(NCc2ccccc2)nc1Nc1ccc2[nH]nnc2c1` ?
2.23

Parameter requested: IC50. Apply to each item below.
1. CC(C)Nc1ccc(NC(=O)Nc2ccccc2)c(Nc2ccc3[nH]nnc3c2)n1
2. CN(C)S(=O)(=O)Nc1ccc(NCc2cccc3ccccc23)nc1Nc1ccc2[nH]nnc2c1
3. CN(C)S(=O)(=O)Nc1ccc(NCc2ccco2)nc1Nc1ccc2[nH]nnc2c1
4. CN(C)S(=O)(=O)Nc1ccc(NCCO)nc1Nc1ccc2[nH]nnc2c1
5. CN(C)S(=O)(=O)Nc1ccc(NCc2ccc3c(c2)OCO3)nc1Nc1ccc2[nH]nnc2c1
6. CN(C)S(=O)(=O)Nc1ccc(NCCc2c[nH]c3ccccc23)nc1Nc1ccc2[nH]nnc2c1
7. CC(C)Nc1ccc(NC(=O)c2ccccc2)c(Nc2ccc3[nH]nnc3c2)n1
8. CN(C)S(=O)(=O)Nc1ccc(NCCc2ccccc2)nc1Nc1ccc2[nH]nnc2c1

6.89
7.91
6.22
5.7
7.7
3.62
3.98
5.25

Parameter requested: IC50. Apply to each item below.
1. C[C@H](Nc1ccc(NS(=O)(=O)N(C)C)c(Nc2ccc3[nH]nnc3c2)n1)[C@@H](c1ccccc1)N(C)C
2. CC(C)Nc1ccc([N+](=O)[O-])c(Nc2ccc3c(c2)nnn3S(=O)(=O)c2ccc(F)cc2)n1
3. CC(C)Nc1ccc(NS(=O)(=O)c2ccccc2C(F)(F)F)c(Nc2ccc3[nH]nnc3c2)n1
4. CCCS(=O)(=O)Nc1ccc(NC(C)C)nc1Nc1ccc2[nH]nnc2c1
5. CN(C)S(=O)(=O)Nc1ccc(NCCCN2CCOCC2)nc1Nc1ccc2[nH]nnc2c1
6. CN(C)S(=O)(=O)Nc1ccc(NCCN2CCOCC2)nc1Nc1ccc2[nH]nnc2c1

3.22
3.87
1.61
3.23
5.41
7.97

Parameter requested: IC50. Apply to each item below.
1. CC(C)Nc1ccc([N+](=O)[O-])c(Nc2ccc3c(c2)nnn3C(=O)Nc2ccccc2)n1
2. CN(C)S(=O)(=O)Nc1ccc(NCc2ccc(F)cc2)nc1Nc1ccc2[nH]nnc2c1

1: 5.13; 2: 5.24

====

What IC50 was measured for each of the following?
# experimental-system: Bromodomain-containing protein 4 (Homo sapiens, UniProt O60885)
# assay-name: Inhibition of BRD4 BD2 (unknown origin) using SGRGK(Ac)GGK(Ac)GLGK(Ac) GGAK(Ac)RHRK-biotinylated peptide as substrate incubated for 60 mins by alpha screen assay
One number for each entry, in µM.

Some solved cases for reference:
Returns the measured IC50 for the input molecule. Input: `COC(=O)NS(=O)(=O)Nc1ccc(NC(C)C)nc1Nc1ccc2[nH]nnc2c1`
1.06

Returns the measured IC50 for the input molecule. Input: `CN(C)S(=O)(=O)Nc1ccc(NCC2CC2)nc1Nc1ccc2[nH]nnc2c1`
5.63

Returns the measured IC50 for the input molecule. Input: `CC(C)Nc1ccc(NS(=O)(=O)c2ccc(F)cc2)c(Nc2ccc3[nH]nnc3c2)n1`
0.3

Returns the measured IC50 for the input molecule. Input: `CC(C)Nc1ccc(NS(=O)(=O)c2ccc(F)cc2F)c(Nc2ccc3[nH]nnc3c2)n1`
0.72

Returns the measured IC50 for the input molecule. Input: `CN(C)S(=O)(=O)Nc1ccc(NCc2ccc(F)cc2F)nc1Nc1ccc2[nH]nnc2c1`
11.3

Returns the measured IC50 for the input molecule. Input: `CC(C)Nc1ccc([N+](=O)[O-])c(Nc2ccc3c(c2)nnn3C)n1`
10.3

Now examine the next entry.
Returns the measured IC50 for the input molecule. Input: CN(C)S(=O)(=O)Nc1ccc(NCC(O)c2ccccc2)nc1Nc1ccc2[nH]nnc2c1 (configuration not stated)
5.11

====

# experimental-system: Bromodomain-containing protein 4 (Homo sapiens, UniProt O60885)
# assay-name: Inhibition of BRD4 BD2 (unknown origin) using SGRGK(Ac)GGK(Ac)GLGK(Ac) GGAK(Ac)RHRK-biotinylated peptide as substrate incubated for 60 mins by alpha screen assay
assay-readout: pIC50
One number for each entry, as −log10 of the molar value.

Some solved cases for reference:
Returns the measured pIC50 for the input compound. Input: `CN(C)S(=O)(=O)Nc1ccc(NCCO)nc1Nc1ccc2[nH]nnc2c1`
5.08

Returns the measured pIC50 for the input compound. Input: `CC(C)Nc1ccc([N+](=O)[O-])c(Nc2ccc3c(c2)nnn3C(=O)c2ccccc2)n1`
4.99

Returns the measured pIC50 for the input compound. Input: `CCS(=O)(=O)Nc1ccc(NC(C)C)nc1Nc1ccc2[nH]nnc2c1`
5.35

Returns the measured pIC50 for the input compound. Input: `CC(C)Nc1ccc(NS(C)(=O)=O)c(Nc2ccc3[nH]nnc3c2)n1`
5.54

Returns the measured pIC50 for the input compound. Input: `CN(C)S(=O)(=O)Nc1ccc(NC2COC2)nc1Nc1ccc2[nH]nnc2c1`
5.00

Returns the measured pIC50 for the input compound. Input: `CC(C)Nc1ccc(NC(=O)c2ccccc2)c(Nc2ccc3[nH]nnc3c2)n1`
4.91

Parameter requested: pIC50. Apply to each item below.
1. CC(C)Nc1ccc(NS(=O)(=O)c2cccnc2)c(Nc2ccc3[nH]nnc3c2)n1
2. CC(C)Nc1ccc(NS(=O)(=O)C(C)C)c(Nc2ccc3[nH]nnc3c2)n1

[6.10, 5.91]

Parameter requested: pIC50. Apply to each item below.
1. CC(C)Nc1ccc(NS(=O)(=O)C2CC2)c(Nc2ccc3[nH]nnc3c2)n1
2. CN(C)S(=O)(=O)Nc1ccc(NCCN2CCOCC2)nc1Nc1ccc2[nH]nnc2c1
3. CC(C)Nc1ccc(NS(=O)(=O)N(C)C)c(Nc2ccc3[nH]nnc3c2)n1
4. CC(C)Nc1ccc(NC(=O)Nc2ccccc2)c(Nc2ccc3[nH]nnc3c2)n1

[5.74, 4.94, 5.69, 4.99]

Parameter requested: pIC50. Apply to each item below.
1. CC(C)Nc1ccc([N+](=O)[O-])c(Nc2ccc3c(c2)nnn3S(=O)(=O)c2ccccc2)n1
2. CCCS(=O)(=O)Nc1ccc(NC(C)C)nc1Nc1ccc2[nH]nnc2c1

[5.35, 5.52]
